# tested system: UniProt:P08684
# assay explanation: Mechanism based inhibition of human cytochrome P450 3A4 measured by N-demethylation of erythromycin
# Type: ADME
# test conditions: human, probe erythromycin (N-demethylation)
readout type: kinact

Inquiry: So what's the measured kinact for this one? COc1cc2c(c(OC)c1OC)-c1c(cc3c(c1OC)OCO3)C[C@H](C)[C@](C)(O)[C@H]2OC(=O)c1ccccc1
Reply text: 0.00153 s⁻¹

----------
# tested system: Cytochrome P450 3A4 (Homo sapiens)
# assay explanation: Mechanism based inhibition of human cytochrome P450 3A4 measured by (14C)formaldehyde production from (N-methyl-14C)-erythromycin
# Format: ADME
pKi: −log10 of the molar value.
Decide by pKi: equal to or exceeding 7 means class 1, less means class 0.

These solved cases illustrate the format of a correct answer.
{"compound": "O=c1c2ccccc2nc2n1CCc1c-2[nH]c2ccccc12 [RUTAECARPINE]", "category": "class 0"}
{"compound": "COc1cc(C[C@@H](CO)[C@H](CO)Cc2ccc3c(c2)OCO3)cc(OC)c1OC", "category": "class 1"}
{"compound": "O=C1OC[C@H](Cc2ccc3c(c2)OCO3)[C@H]1Cc1ccc2c(c1)OCO2 [HINOKININ]", "category": "class 0"}

Inquiry: Can COc1cc(C[C@H]2C(=O)OC[C@@H]2Cc2ccc3c(c2)OCO3)cc(OC)c1OC be said to have pKi at or above 7?
Reply text: class 0

----------
# tested system: Cytochrome P450 2B1 (Rattus norvegicus)
# Sequence (P00176 whole entry): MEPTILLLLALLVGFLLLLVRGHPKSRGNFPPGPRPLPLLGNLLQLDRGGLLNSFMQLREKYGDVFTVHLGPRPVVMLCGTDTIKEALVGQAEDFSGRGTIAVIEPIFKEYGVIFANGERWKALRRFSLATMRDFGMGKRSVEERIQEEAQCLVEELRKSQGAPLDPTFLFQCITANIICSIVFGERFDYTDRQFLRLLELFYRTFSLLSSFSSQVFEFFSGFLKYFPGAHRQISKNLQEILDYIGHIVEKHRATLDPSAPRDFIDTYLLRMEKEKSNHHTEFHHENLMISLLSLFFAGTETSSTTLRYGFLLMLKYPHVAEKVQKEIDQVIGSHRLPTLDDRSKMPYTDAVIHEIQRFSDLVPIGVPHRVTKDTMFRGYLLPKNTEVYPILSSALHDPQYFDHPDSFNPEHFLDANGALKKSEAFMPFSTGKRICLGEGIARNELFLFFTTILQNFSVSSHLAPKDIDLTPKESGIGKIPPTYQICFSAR
# assay explanation: Mechanism based inhibition of rat cytochrome P450 2B1
# Format: ADME
Documented pKi across a set of compounds
pKi (log units): -log10 of the concentration in mol/L.

{"structure": "CC(C)=CCC/C(C)=C/COc1c2ccoc2cc2oc(=O)ccc12", "readout type": "pKi", "numeric readout": 5.62}
{"structure": "CC(C)(c1ccccc1)N1CCCCC1", "readout type": "pKi", "numeric readout": 4.92}

Moving on to another compound below.
Inquiry: What value of measured pKi is listed for S=P(N1CC1)(N1CC1)N1CC1 ?
Reply text: 4.51

----------
# tested system: UniProt:P08684
# assay explanation: Mechanism based inhibition of human cytochrome P450 3A4 measured by DBF fluorescence
# Format: ADME
readout type: Ki (µM)
Use µM as the unit, but write only the number.

Inquiry: Using the record for CC(O)CCC(=O)c1ccoc1 (stereo unspecified) , report its Ki.
Reply text: 20

----------
# tested system: UniProtKB P00185
# Sequence (P00185 whole entry): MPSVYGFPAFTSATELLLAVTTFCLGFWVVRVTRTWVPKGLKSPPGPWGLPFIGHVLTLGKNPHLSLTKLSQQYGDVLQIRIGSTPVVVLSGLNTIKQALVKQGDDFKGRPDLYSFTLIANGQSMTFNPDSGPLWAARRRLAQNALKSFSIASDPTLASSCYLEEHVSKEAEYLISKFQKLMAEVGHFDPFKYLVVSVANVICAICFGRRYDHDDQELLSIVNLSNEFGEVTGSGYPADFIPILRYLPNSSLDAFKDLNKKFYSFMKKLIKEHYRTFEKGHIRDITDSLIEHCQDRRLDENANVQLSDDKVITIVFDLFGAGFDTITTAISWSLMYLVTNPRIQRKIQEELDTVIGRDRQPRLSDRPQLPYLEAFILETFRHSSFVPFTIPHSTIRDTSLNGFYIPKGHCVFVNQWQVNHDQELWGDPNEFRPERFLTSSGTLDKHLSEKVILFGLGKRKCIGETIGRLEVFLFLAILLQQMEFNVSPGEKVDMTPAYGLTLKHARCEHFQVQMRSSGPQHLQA
# assay explanation: Mechanism based inhibition of rat cytochrome P450 CYP1A1 measured by 7-ethoxyresorufin O-deethylation (EROD)
# Type: ADME
# test conditions: rat, probe 7-ethoxyresorufin (O-deethylation, EROD)
# key: entry, value: kinact
The answer is to be given in s⁻¹; state only the numeric part.

Worked examples follow.
{"structure": "C#Cc1ccc2c(ccc3ccccc32)c1", "tested system": "UniProtKB P00185", "readout type": "kinact", "numeric readout": 0.0133}
{"structure": "CC#CCCCc1ccccc1", "tested system": "UniProtKB P00185", "readout type": "kinact", "numeric readout": 0.00833}
{"structure": "C#Cc1ccc2ccc3ccccc3c2c1", "tested system": "UniProtKB P00185", "readout type": "kinact", "numeric readout": 0.00167}
{"structure": "C#Cc1ccc2ccc3cccc4ccc1c2c34", "tested system": "UniProtKB P00185", "readout type": "kinact", "numeric readout": 0.00117}
{"structure": "C#Cc1cc2cccc3ccc4cccc1c4c32", "tested system": "UniProtKB P00185", "readout type": "kinact", "numeric readout": 0.00117}
{"structure": "CC#Cc1ccc2ccc3cccc4ccc1c2c34", "tested system": "UniProtKB P00185", "readout type": "kinact", "numeric readout": 0.000333}

Inquiry: Entry under review: C#Cc1ccc(NC(C)=O)cc1 . Reported kinact?
Reply text: 0.0015

Inquiry: What kinact value was documented for this compound, CC#Cc1ccc2c(ccc3ccccc32)c1 ?
Reply text: 0.005

Inquiry: # input compound: C#Cc1ccc(-c2ccccc2)cc1 ; wanted: its kinact
Reply text: 0.001

----------
# tested system: Cytochrome P450 1A1 (Homo sapiens, UniProt P04798)
# Sequence (P04798 whole entry): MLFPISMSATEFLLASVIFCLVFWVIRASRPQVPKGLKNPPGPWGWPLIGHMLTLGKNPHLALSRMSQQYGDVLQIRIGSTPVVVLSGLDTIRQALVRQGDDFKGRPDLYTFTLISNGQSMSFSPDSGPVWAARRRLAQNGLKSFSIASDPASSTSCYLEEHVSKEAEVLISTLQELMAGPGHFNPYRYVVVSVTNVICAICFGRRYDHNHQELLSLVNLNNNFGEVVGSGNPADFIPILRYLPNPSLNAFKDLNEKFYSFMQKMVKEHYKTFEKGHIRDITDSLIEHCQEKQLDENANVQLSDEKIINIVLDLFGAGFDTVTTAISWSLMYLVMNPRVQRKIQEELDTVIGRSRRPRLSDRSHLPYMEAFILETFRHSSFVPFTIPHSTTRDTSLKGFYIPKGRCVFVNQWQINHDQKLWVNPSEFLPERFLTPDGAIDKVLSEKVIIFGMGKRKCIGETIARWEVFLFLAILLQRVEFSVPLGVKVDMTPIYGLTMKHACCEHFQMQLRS
readout type: Ki (nM)
Respond with the bare value in nM.

Inquiry: What is its Ki for Cytochrome P450 1A1 (Homo sapiens, UniProt P04798)? Entry: CC#Cc1ccc(-c2ccccc2)cc1
Reply text: 220

----------
# tested system: CYP2B1 (Rattus norvegicus, UniProt P00176)
# assay explanation: Mechanism based inhibition of rat cytochrome P450 CYP2B1 measured by 7-pentoxyresorufin […] activity (PROD)
# Format: ADME
# test conditions: rat, probe 7-pentoxyresorufin (O-deethylation, PROD)
readout type: kinact (s⁻¹)
Please respond with the number in s⁻¹ and leave the unit unwritten.

{"compound": "C#CCN(C)C(C)CCCCC.C#CCN[C@@H](C)CCCCC.C#CCN[C@H](C)CCCCC (configuration not stated)", "readout type": "kinact", "unit string": "s⁻¹", "numeric readout": 0.00133}

Now turn to the next compound.
Inquiry: Fill in the blank: the reported kinact of C#Cc1cc2ccccc2c2ccccc12 is ____.
Reply text: 0.0075

----------
# tested system: Cytochrome P450 3A4 (Homo sapiens)
# assay explanation: Mechanism based inhibition of human cytochrome P450 3A4 measured by midazolam 1'-hydroxylation
# Format: ADME
readout type: Ki (µM)
The response must be a number in µM with no trailing unit.

Inquiry: Entry CC/C(=C(\c1ccccc1)c1ccc(OCCN)cc1)c1ccccc1 [DESMETHYL TAMOXIFEN] : reported Ki = ?
Reply text: 12

----------
# tested system: Cytochrome P450 2A6 (Homo sapiens)
# Sequence (P11509 whole entry): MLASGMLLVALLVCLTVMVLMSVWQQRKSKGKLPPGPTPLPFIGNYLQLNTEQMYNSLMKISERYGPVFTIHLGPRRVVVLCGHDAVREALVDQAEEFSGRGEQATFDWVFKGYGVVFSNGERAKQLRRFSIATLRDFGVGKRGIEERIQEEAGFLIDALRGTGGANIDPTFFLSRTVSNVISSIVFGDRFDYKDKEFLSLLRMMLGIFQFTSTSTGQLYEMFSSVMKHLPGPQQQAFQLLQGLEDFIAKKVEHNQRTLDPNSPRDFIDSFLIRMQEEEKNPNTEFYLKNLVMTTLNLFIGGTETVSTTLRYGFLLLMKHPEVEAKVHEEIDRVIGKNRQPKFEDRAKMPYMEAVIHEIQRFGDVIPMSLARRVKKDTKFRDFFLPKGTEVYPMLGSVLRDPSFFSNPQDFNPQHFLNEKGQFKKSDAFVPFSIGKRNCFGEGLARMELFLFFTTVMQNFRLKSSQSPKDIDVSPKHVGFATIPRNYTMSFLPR
# assay explanation: Mechanism based inhibition of human cytochrome P450 2A6 measured by coumarin 7-hydroxylation using human liver microsomes
# Format: ADME, Microsome
readout type: Ki

Inquiry: Recall the recorded Ki for Cc1coc2c1CCC(C)C2 (stereo unspecified) [MENTHOFURAN] with Cytochrome P450 2A6 (Homo sapiens) and state it.
Reply text: 2500 nM

----------
# tested system: CYP2B1 (Rattus norvegicus)
# assay explanation: Mechanism based inhibition of rat cytochrome P450 2B1
# Type: ADME
# test conditions: rat
readout type: kinact (s⁻¹)
Just the number in s⁻¹, nothing appended.

{"structure": "CC(C)=CCC/C(C)=C/COc1c2ccoc2cc2oc(=O)ccc12", "readout type": "kinact", "numeric readout": 0.000817}

Now consider a different compound.
Inquiry: Record lookup: for CYP2B1 (Rattus norvegicus), what kinact belongs to CC(C)(c1ccccc1)N1CCCCC1 ?
Reply text: 0.005

----------
# tested system: CYP3A4 (Homo sapiens, UniProt P08684)
# Sequence (P08684 whole entry): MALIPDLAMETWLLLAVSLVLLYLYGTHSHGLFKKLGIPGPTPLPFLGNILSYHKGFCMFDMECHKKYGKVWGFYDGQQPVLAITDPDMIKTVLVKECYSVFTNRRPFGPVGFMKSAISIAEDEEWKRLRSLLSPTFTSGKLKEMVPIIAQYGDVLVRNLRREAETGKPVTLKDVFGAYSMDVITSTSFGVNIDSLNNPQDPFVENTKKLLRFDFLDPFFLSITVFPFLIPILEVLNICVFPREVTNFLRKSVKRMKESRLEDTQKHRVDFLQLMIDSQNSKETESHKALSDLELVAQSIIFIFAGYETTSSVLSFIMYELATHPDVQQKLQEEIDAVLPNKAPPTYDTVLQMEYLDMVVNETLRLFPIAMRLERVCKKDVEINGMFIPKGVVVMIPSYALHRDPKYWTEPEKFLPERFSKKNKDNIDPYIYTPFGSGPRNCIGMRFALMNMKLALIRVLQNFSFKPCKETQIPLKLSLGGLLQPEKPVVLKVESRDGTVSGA
# assay explanation: Mechanism based inhibition of human cytochrome P450 3A4 measured by testosterone 6-beta hydroxylation
# Assay type: ADME
# test conditions: human, probe testosterone (6-beta hydroxylation)
readout type: kinact (s⁻¹)
// units = s⁻¹; emit number, no label

{"compound": "CC/C(=C(\\c1ccccc1)c1ccc(OCCN)cc1)c1ccccc1", "kinact [s⁻¹]": 0.00133}
{"compound": "CC(C)CN(C[C@@H](O)[C@H](Cc1ccccc1)NC(=O)[C@@H](NC(=O)CNCc1cccc(F)c1)C(C)(C)C)S(=O)(=O)c1cccc(N)c1", "kinact [s⁻¹]": 0.00367}
{"compound": "CC(C)(C)NC(=O)[C@@H]1CN(Cc2cnc3occc3c2)CCN1C[C@@H](O)C[C@@H](Cc1ccccc1)C(=O)N[C@H]1c2ccccc2C[C@H]1O", "kinact [s⁻¹]": 0.027}

Please find the next compound below.
Inquiry: Please provide the recorded kinact for CNCCCC(C#N)(c1ccc(OC)c(OC)c1)C(C)C (centres undefined) , tested on CYP3A4 (Homo sapiens, UniProt P08684).
Reply text: 0.00117

----------
Recorded kinact by entry
# tested system: CYP2A6 (Homo sapiens, UniProt P11509)
# Sequence (P11509 whole entry): as the sequence (P11509 whole entry) above
# assay explanation: Mechanism based inhibition of human cytochrome P450 2A6 measured by coumarin 7-hydroxylation
# Assay type: ADME
# test conditions: human, probe coumarin (7-hydroxylation)
Reply numerically in s⁻¹, unit not repeated.

{"structure": "COc1c2ccoc2cc2oc(=O)ccc12", "tested system": "CYP2A6 (Homo sapiens, UniProt P11509)", "unit string": "s⁻¹", "kinact": 0.006}
{"structure": "COc1c2c(cc3ccc(=O)oc13)CCO2", "tested system": "CYP2A6 (Homo sapiens, UniProt P11509)", "unit string": "s⁻¹", "kinact": 0.00233}

As a next step, examine the compound that follows.
Inquiry: Endpoint output: kinact of O=c1ccc2cc3ccoc3cc2o1 . Value?
Reply text: 0.005

----------
# tested system: CYP3A5 (Homo sapiens)
# Sequence (P20815 whole entry): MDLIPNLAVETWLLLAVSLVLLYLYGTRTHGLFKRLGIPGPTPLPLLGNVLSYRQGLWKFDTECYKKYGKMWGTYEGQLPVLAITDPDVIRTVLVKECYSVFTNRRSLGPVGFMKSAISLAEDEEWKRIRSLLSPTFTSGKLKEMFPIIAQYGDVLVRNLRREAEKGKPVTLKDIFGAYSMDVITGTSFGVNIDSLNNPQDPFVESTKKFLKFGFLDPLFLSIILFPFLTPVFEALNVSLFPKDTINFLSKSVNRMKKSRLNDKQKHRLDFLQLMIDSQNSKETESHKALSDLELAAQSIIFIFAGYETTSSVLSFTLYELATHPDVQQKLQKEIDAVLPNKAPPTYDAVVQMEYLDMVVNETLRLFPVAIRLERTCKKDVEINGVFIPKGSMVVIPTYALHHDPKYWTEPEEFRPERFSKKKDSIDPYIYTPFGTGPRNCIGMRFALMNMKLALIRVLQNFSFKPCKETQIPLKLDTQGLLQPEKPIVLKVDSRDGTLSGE
# assay explanation: Mechanism based inhibition of human cytochrome P450 3A5
# Type: ADME
# test conditions: human
readout type: kinact (s⁻¹)
# number only, unit s⁻¹ dropped from output

Inquiry: Which kinact is reported with CYP3A5 (Homo sapiens) for this entry: CC(C)=CCC/C(C)=C/COc1c2ccoc2cc2oc(=O)ccc12 [BERGAMOTTIN] ?
Reply text: 0.00075
